Hello, the source for this data is patent US6358885B1, in case you need it.

# key: entry, value: Plant response rating, Wild oat
# System: wild oat
# assay.protocol: Test B preemergence/postemergence greenhouse plant response rating 0 to 10
# Assay type: in vivo, Avena fatua
# recorded.conditions: PREEMERGENCE, Rate 50 g/ha; 0 to 10 scale

- compound: "COCOc1cc(-c2nn3c(c2Cl)CCCC3)c(F)cc1Cl"
  measurement.target: "wild oat"
  Plant response rating, Wild oat: 6
- compound: "C#CC(C)Oc1cc(-c2nn3c(c2Br)CCCC3)c(F)cc1Cl (stereo not drawn)"
  measurement.target: "wild oat"
  Plant response rating, Wild oat: 2
- compound: "C=CCN1C(=O)COc2cc(F)c(-c3nn4c(c3Cl)CCCC4)cc21"
  measurement.target: "wild oat"
  Plant response rating, Wild oat: 7
